assayTarget: human CH24H (Homo sapiens, UniProt Q9Y6A2)
Construct: Using Full-Length Mammalian Gene Collection No. 4819975 (Invitrogen) as a template; made in house; host or cells: FreeStyle 293-F cells, transient transfection with pcDNA3.1(+)/hCH24H; lysate supernatant, not purified
Sequence (Q9Y6A2 whole entry): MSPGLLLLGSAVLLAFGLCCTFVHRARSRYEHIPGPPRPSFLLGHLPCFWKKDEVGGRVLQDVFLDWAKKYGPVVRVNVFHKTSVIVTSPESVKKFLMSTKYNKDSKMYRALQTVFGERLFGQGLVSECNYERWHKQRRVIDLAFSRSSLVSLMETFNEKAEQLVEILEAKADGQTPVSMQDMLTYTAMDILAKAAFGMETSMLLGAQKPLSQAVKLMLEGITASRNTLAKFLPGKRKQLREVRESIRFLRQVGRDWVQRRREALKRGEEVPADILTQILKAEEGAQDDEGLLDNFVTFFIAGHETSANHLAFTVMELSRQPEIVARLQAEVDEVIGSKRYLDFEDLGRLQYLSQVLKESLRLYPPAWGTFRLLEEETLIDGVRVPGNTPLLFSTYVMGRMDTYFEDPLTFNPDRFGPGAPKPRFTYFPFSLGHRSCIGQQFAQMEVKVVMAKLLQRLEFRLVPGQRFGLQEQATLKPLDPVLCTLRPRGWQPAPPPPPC
methodNotes: Measurement of CH24H inhibitory activity (24-HC produced from [14C] cholesterol by human CH24H lysate)
Format: biochemical
conditionDetails: 1 μM test compound, [14C] cholesterol 15 μM, 37° C. for 5 hr, read-out: Inhibitory Rate in 1 μM (%)
quantityName: inhibition at 1 µM (%)
Express it in %; write the number only.

Q: I am curious: what inhibition at 1 µM value has been reported for NC(=O)[C@@H]1CC(F)(F)CN1C(=O)C1CCN(c2cnccc2-n2cc(Cl)cn2)CC1 [Example 117] ?
Ans: 85

Q: What value of inhibition at 1 µM has been recorded for this entry: O=C(C1CCN(c2cnccc2-n2cc(C3CC3)cn2)CC1)N1CC[C@H](F)C1 [Example 322]
Ans: 93

Q: Name the recorded inhibition at 1 µM for CCNC(=O)N1CCN(c2cncnc2-c2ccccc2)CC1 [Example 176] .
Ans: 82

Q: Query (compound): Cc1cnn(-c2ccncc2N2CCC(C(=O)N(C)[C@@H]3CCOC3)CC2)c1 [Example 306] ; field requested: inhibition at 1 µM
Ans: 85

Q: // inhibition at 1 µM lookup, key: O=C(C1CCN(c2cnccc2-n2cc(Cl)cn2)CC1)N1CCS(=O)(=O)CC1 [Example 30]
Ans: 97

Q: // inhibition at 1 µM lookup, key: CN(C(=O)C1CCN(c2cnccc2-n2cc(Cl)cn2)CC1)[C@@H]1CCOC1 [Example 308]
Ans: 83

Q: Look up inhibition at 1 µM: O=C(C1CCN(c2cnccc2-n2cc(Cl)cn2)CC1)N1CC(F)C1 [Example 281]
Ans: 84

Q: Need inhibition at 1 µM, item CO[C@H]1CCN(C(=O)C2CCN(c3cnccc3-n3cc(C)cn3)CC2)C1 [Example 301]
Ans: 86

Q: What does the data say about its inhibition at 1 µM? Entry: CN(C(=O)C1CCN(c2cncnc2-c2ccc(F)cc2)CC1)C1CCOCC1 [Example 288]
Ans: 84

Q: Quick check: inhibition at 1 µM of CN1CCC2(CCN(c3cncnc3-c3ccc(F)cc3)CC2)C1=O [Example 222] ?
Ans: 92

Q: Given the compound CO[C@@H]1CCN(C(=O)C2CCN(c3cnccc3-n3cc(C)cn3)CC2)C1 [Example 302] , what is its reported inhibition at 1 µM?
Ans: 87

Q: // lookup inhibition at 1 µM for CN(C)C(=O)C1CCN(c2cnccc2-c2nc3ccccc3s2)CC1 [Example 21]
Ans: 85

Q: Request the reported inhibition at 1 µM associated with CC1CCCN1C(=O)C1CCN(c2cnccc2-n2cc(Cl)cn2)CC1 (centres unmarked) [Example 25]
Ans: 97

Q: Record request: inhibition at 1 µM value, item O=C(C1CCN(c2cncnc2-c2ccc(F)cc2)CC1)N1CC[C@@H](F)C1 [Example 287]
Ans: 89

Q: Which inhibition at 1 µM reading was recorded for the compound O=C(C1CCN(c2cnccc2-c2ccccn2)CC1)N1CCC(F)(F)C1 [Example 214] ?
Ans: 89

Q: Returns the measured inhibition at 1 µM for the input compound. Input: O=C(C1CC1)N1CCN(c2cncc(F)c2-c2ccccc2)CC1 [Example 165]
Ans: 86

Q: Return reported inhibition at 1 µM; argument: Cc1cnn(-c2ccncc2N2CCC(C(=O)N(C)[C@H]3CCOC3)CC2)c1 [Example 305]
Ans: 85

Q: Which inhibition at 1 µM is reported for this compound? CO[C@H]1CCN(C(=O)C2CCN(c3cnccc3-n3cc(Cl)cn3)CC2)C1 [Example 299]
Ans: 84

Q: Fill in the blank: the reported inhibition at 1 µM of O=C(C1CC1)N1CCN(c2cnccc2-c2ccccc2)CC1 [Example 152] is ____.
Ans: 90

Q: Any idea what inhibition at 1 µM was measured for Cc1cnn(-c2ccncc2N2CCC(C(=O)N3CC[C@@H](F)C3)CC2)c1 [Example 283] ?
Ans: 85

Q: Look up inhibition at 1 µM: Cc1cnn(-c2ccncc2N2CCC(C(=O)N3CC(F)(F)C[C@@H]3C#N)CC2)c1 [Example 130]
Ans: 93

Q: Suppose we examine the compound O=C(C1CCN(c2cnccc2-n2cc(Cl)cn2)CC1)N1CC[C@@H](F)C1 [Example 285] ; what inhibition at 1 µM value has been reported?
Ans: 82

Q: # lookup: inhibition at 1 µM of CN(C(=O)C1CCN(c2cnccc2-n2cc(Cl)cn2)CC1)[C@H]1CCOC1 [Example 307]
Ans: 81
